Property name: melting point

Worked examples follow.
Cc1c[nH]c(C)c1-c1ccnc(Nc2cc(F)cc(F)c2)n1 [Compound 6] | 153.3 to 156.8 °C
Cc1c[nH]c(C)c1-c1ccnc(Nc2ccc(O)cc2)n1 [Compound 7] | 189.5 to 193.4 °C

# lookup: melting point of Cc1c[nH]c(C)c1-c1ccnc(Nc2ccc(I)c(F)c2)n1 [Compound 17] 200 to 202 °C

Input Cc1[nH]c(C#N)c(C)c1-c1ccnc(Nc2ccc(I)cc2)n1 [Compound 35] 178.3 to 181.2 °C

Check Cc1c[nH]c(C)c1-c1ccnc(Nc2ccc(C(F)(F)F)cc2)n1 [Compound 12] too. 165.6 to 167.9 °C

Can you handle Cc1ccc(Nc2nccc(-c3c(C)[nH]c(C#N)c3C)n2)cc1I [Compound 38] next? 189.5 to 191.7 °C

Entry to check: Cc1cc(Nc2nccc(-c3c(C)[nH]c(C#N)c3C)n2)ccc1Cl [Compound 39] 194.2 to 197.9 °C

Okay, and Cc1[nH]c(C#N)c(C)c1-c1ccnc(Nc2ccc(N(C)C)cc2)n1 [Compound 43] ? 190.6 to 193.7 °C

# repeat for Cc1ccc(Nc2nccc(-c3c(C)[nH]c(C#N)c3C)n2)cc1F [Compound 42] 177.7 to 179.9 °C

Same thing, different compound: Cc1[nH]c(CN2CCOCC2)c(C)c1-c1ccnc(Nc2ccc(F)cc2)n1 [Compound 55] 94.7 to 97.6 °C

What about Cc1c[nH]c(C)c1-c1ccnc(Nc2ccc(I)c(Cl)c2)n1 [Compound 16] ? 185 to 187.4 °C

Next up: Cc1[nH]c(CN(C)C)c(C)c1-c1ccnc(Nc2ccc(F)cc2)n1 [Compound 54] 88.4 to 91.6 °C

====

- Assay system: CDK2/cyclin E (Homo sapiens, UniProt P24941)
- Construct: His; made in house; host or cells: Sf9 insect cells (baculovirus)
- Experiment: CDK2/Cyclin E kinase assay (GST-Rb phosphorylation, radiolabelled ATP)
- Format: biochemical
- Condition info: bound stated, (±0.05); read-out: IC50 for cdk2/cyclinE
Property name: IC50

Cc1[nH]c(C#N)c(C)c1-c1ccnc(Nc2ccc(N(C)C)cc2)n1 | < 1000 nM
Cc1cc(Nc2nccc(-c3c(C)[nH]c(C#N)c3C)n2)ccc1Cl | < 1000 nM
Cc1c[nH]c(C)c1-c1ccnc(Nc2ccc(I)cc2)n1 | < 500 nM
Cc1c[nH]c(C)c1-c1ccnc(Nc2ccc(O)cc2)n1 | < 5000 nM
Cc1[nH]c(C#N)c(C)c1-c1ccnc(Nc2ccc(I)cc2)n1 | < 500 nM
Cc1c[nH]c(C)c1-c1ccnc(Nc2ccc(F)c(F)c2)n1 | < 5000 nM
CCN(CC)Cc1[nH]c(C)c(-c2ccnc(Nc3ccc(F)cc3)n2)c1C | < 1000 nM
Cc1[nH]c(CN2CCOCC2)c(C)c1-c1ccnc(Nc2ccc(F)cc2)n1 | < 1000 nM

Test system CDK2/cyclin E (Homo sapiens, UniProt P24941); read-out IC50; what value for Cc1[nH]c(CN2CCN(C)CC2)c(C)c1-c1ccnc(Nc2ccc(F)cc2)n1 ? < 5000 nM

====

- Assay system: CDK2/cyclin E (Homo sapiens)
- Construct: His; made in house; host or cells: Sf9 insect cells (baculovirus)
- Experiment: CDK2/Cyclin E kinase assay (GST-Rb phosphorylation, radiolabelled ATP);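 note: enzyme was His-tagged CDK2/cyclin E co-expressed in baculovirus-infected Sf9 insect cells and purified over a metal-chelate column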
- Assay type: biochemical
- Condition info: bound stated, (±0.05); read-out: IC50 for cdk2/cyclinE
pIC50: −log10 of the molar value.
Listing of entries alongside the reported pIC50.

Cc1[nH]c(C#N)c(C)c1-c1ccnc(Nc2cccc(O)c2)n1 [Compound 36] | > 6.30
Cc1c[nH]c(C)c1-c1ccnc(Nc2ccc(F)cc2)n1 [Compound 1] | > 6.00
Cc1[nH]c([N+](=O)[O-])c(C)c1-c1ccnc(Nc2ccc(N(C)C)cc2)n1 [Compound 48] | > 6.00
Cc1[nH]c(Br)c(C)c1-c1ccnc(Nc2ccc(F)cc2)n1 [Compound 50] | > 6.00
Cc1[nH]c(C#N)c(C)c1-c1ccnc(Nc2ccc(C(F)(F)F)cc2)n1 [Compound 34] | > 6.30
Cc1[nH]c(CN(C)C)c(C)c1-c1ccnc(Nc2ccc(F)cc2)n1 [Compound 54] | > 6.30
Cc1c[nH]c(C)c1-c1ccnc(Nc2ccc(C(F)(F)F)cc2)n1 [Compound 12] | > 6.00
Cc1[nH]c(Cl)c(C)c1-c1ccnc(Nc2ccc(F)cc2)n1 [Compound 52] | > 6.00

Turning to the following compound.
Item Cc1[nH]c(Br)c(C)c1-c1ccnc(Nc2cccc([N+](=O)[O-])c2)n1 [Compound 51] with CDK2/cyclin E (Homo sapiens) - pIC50? > 6.30
